Recorded values, source patent US8629084B2.

Test: logP determination by HPLC on reversed-phase column (C18), EEC Directive 79/831 Annex V.A8
Format: physicochemical
Conditions: compounds of formula (I-2-b); HPLC reversed-phase C18, 43° C., acidic range pH 2.3, 0.1% aqueous phosphoric acid/acetonitrile
Definition: the class of an entry is the range in low value = under 4, medium value = from 4 up to 5, high value = 5 and over that contains its logP.

Some solved cases for reference:
COC1CCC2(CC1)OC(=O)C(c1ccccc1I)=C2OC(=O)C(C)C (stereo not drawn) [Example I-2-b-3]; low value
CCc1cc(I)cc(C)c1C1=C(OC(=O)C(C)C)C2(CCOCC2)OC1=O [Example I-2-b-9]; medium value
CCc1cc(I)cc(C)c1C1=C(OC(=O)C(C)C)C2(CCC(OC)CC2)OC1=O (stereo not drawn) [Example I-2-b-10]; medium value
CCc1cc(I)cc(C)c1C1=C(OC(=O)C(C)C)C(C)(C)OC1=O [I-2-b-8]; medium value
COC1CCC2(CC1)OC(=O)C(c1cc(C)ccc1I)=C2OC(=O)C(C)(C)C (single isomer, unassigned) [Example I-2-b-7]; medium value
Cc1ccc(I)c(C2=C(OC(=O)C(C)(C)C)C3(CCCC3)OC2=O)c1 [Example I-2-b-5]; medium value
CC(C)(C)C(=O)OC1=C(c2ccccc2I)C(=O)OC1(C)C [Example I-2-b-4]; low value
COC1CCC2(CC1)OC(=O)C(c1c(C)cc(I)cc1C)=C2OC(=O)C(C)(C)C (single isomer, unassigned) [Example I-2-b-12]; high value
COC1CCC2(CC1)OC(=O)C(c1cc(C)ccc1I)=C2OC(=O)C(C)(C)C (single isomer, unassigned) [Example I-2-b-6]; medium value

Input Cc1cc(I)cc(C)c1C1=C(OC(=O)C(C)(C)C)C2(CCCC2)OC1=O [Example I-2-b-11] ; output its category
high value
